The measurements presented in this section are drawn from the kinase profiling compilation of Christmann-Franck et al. (2016).

Below, each entry is listed with its recorded kinase still bound, per cent of control.
Target: NUAK2 (human) (UniProt Q9H093)
Sequence (Q9H093 whole entry, looked up): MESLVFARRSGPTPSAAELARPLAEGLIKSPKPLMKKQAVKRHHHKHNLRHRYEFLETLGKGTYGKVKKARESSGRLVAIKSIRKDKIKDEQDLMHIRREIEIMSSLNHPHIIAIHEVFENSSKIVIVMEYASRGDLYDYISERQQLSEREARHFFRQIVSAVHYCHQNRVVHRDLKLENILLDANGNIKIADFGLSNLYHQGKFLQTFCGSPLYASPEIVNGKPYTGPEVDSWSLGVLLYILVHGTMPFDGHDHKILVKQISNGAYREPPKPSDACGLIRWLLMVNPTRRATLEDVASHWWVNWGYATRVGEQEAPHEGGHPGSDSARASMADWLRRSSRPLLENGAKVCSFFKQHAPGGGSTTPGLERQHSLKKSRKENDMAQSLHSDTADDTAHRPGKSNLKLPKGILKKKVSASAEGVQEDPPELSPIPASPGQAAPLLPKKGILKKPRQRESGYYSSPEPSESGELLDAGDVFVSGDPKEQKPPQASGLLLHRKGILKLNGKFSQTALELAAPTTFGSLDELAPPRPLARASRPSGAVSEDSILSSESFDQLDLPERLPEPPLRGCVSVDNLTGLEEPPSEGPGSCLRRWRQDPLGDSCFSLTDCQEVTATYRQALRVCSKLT
Test: KINOMEscan competition binding
Conditions: compound 10.0 µM
readout kind: kinase still bound, per cent of control

>  <molecule>
COc1cc(N2CCC(C(N)=O)CC2)ccc1Nc1nc(N)c(Cl)c(Nc2ccccc2S(=O)(=O)C(C)C)n1

>  <reported value>
100%

$$$$
>  <molecule>
O=c1[nH]c2ccccc2n1C1CCN(Cc2ccc(-c3nc4cc5[nH]cnc5cc4nc3-c3ccccc3)cc2)CC1

>  <reported value>
67%

$$$$
>  <molecule>
COc1cc2c(Nc3ccc(NC(=O)c4ccccc4)cc3)ncnc2cc1OCCCN1CCOCC1

>  <reported value>
94%

$$$$
>  <molecule>
CCc1nc(-c2cccc(C)c2)c(-c2ccnc(NC(=O)c3ccccc3)c2)s1

>  <reported value>
100%

$$$$
>  <molecule>
CC1=C(C(=O)Nc2cc3cn[nH]c3cc2F)C(c2ccc(C(F)(F)F)cc2)CC(=O)N1 (stereo not given)

>  <reported value>
6%

$$$$
>  <molecule>
CNC(=O)Nc1ccc(-c2nc(N3CC4CCC(C3)O4)c3cnn(C4CCC5(CC4)OCCO5)c3n2)cc1

>  <reported value>
100%

$$$$
>  <molecule>
N#C/C(=C1/Nc2ccccc2S1)c1ccnc(NCCc2cccnc2)n1

>  <reported value>
100%

$$$$
>  <molecule>
C=CC(=O)Nc1ccc(C(=O)c2sc(Nc3ccc(N4CCN(C)CC4)cc3OC)nc2N)cc1

>  <reported value>
49%

$$$$
>  <molecule>
COc1cc(C)c(Sc2cnc(NC(=O)c3ccc(CNC(C)C(C)C)cc3)s2)cc1C(=O)N1CCN(C(C)=O)CC1 (stereo not given)

>  <reported value>
25%

$$$$
>  <molecule>
COc1cc2ncnc(Nc3cccc(Cl)c3)c2cc1OC

>  <reported value>
49%

$$$$

----------
Biological target: MYO3B (human)
Assay: KINOMEscan competition binding
Conditions: compound 10.0 µM
Below, each entry is listed with its recorded kinase still bound, per cent of control.

>  <compound>
COc1cc(N2CCC(C(N)=O)CC2)ccc1Nc1nc(N)c(Cl)c(Nc2ccccc2S(=O)(=O)C(C)C)n1

>  <target of assay>
MYO3B (human)

>  <unit abbreviation>
%

>  <kinase still bound, per cent of control>
24

$$$$
>  <compound>
CCN1CCN(Cc2ccc(NC(=O)c3ccc(C)c(/C=C/c4cnc5[nH]ccc5c4OC)c3)cc2C(F)(F)F)CC1

>  <target of assay>
MYO3B (human)

>  <unit abbreviation>
%

>  <kinase still bound, per cent of control>
40

$$$$
>  <compound>
COc1ccc(N(C(=O)Oc2cc(C(=O)Nc3cccc(C(F)(F)F)c3)ccc2C)c2ccnc(Nc3ccc(N4CCN(C)CC4)cc3)n2)c(OC)c1

>  <target of assay>
MYO3B (human)

>  <unit abbreviation>
%

>  <kinase still bound, per cent of control>
100

$$$$
>  <compound>
CCCS(=O)(=O)Nc1ccc(F)c(C(=O)c2c[nH]c3ncc(Cl)cc23)c1F

>  <target of assay>
MYO3B (human)

>  <unit abbreviation>
%

>  <kinase still bound, per cent of control>
47

$$$$
>  <compound>
CNC(=O)Nc1ccc(-c2nc(N3CC4CCC(C3)O4)c3cnn(C4CCC5(CC4)OCCO5)c3n2)cc1

>  <target of assay>
MYO3B (human)

>  <unit abbreviation>
%

>  <kinase still bound, per cent of control>
91

$$$$
>  <compound>
C=CC(=O)Nc1ccc(C(=O)c2sc(Nc3ccc(N4CCN(C)CC4)cc3OC)nc2N)cc1

>  <target of assay>
MYO3B (human)

>  <unit abbreviation>
%

>  <kinase still bound, per cent of control>
83

$$$$
>  <compound>
CC(=O)c1c(C)c2cnc(Nc3ccc(N4CCNCC4)cn3)nc2n(C2CCCC2)c1=O

>  <target of assay>
MYO3B (human)

>  <unit abbreviation>
%

>  <kinase still bound, per cent of control>
100

$$$$
>  <compound>
O=c1[nH]c2ccccc2n1C1CCN(Cc2ccc(-c3nc4cc5[nH]cnc5cc4nc3-c3ccccc3)cc2)CC1

>  <target of assay>
MYO3B (human)

>  <unit abbreviation>
%

>  <kinase still bound, per cent of control>
100

$$$$
>  <compound>
N#C/C(=C1/Nc2ccccc2S1)c1ccnc(NCCc2cccnc2)n1

>  <target of assay>
MYO3B (human)

>  <unit abbreviation>
%

>  <kinase still bound, per cent of control>
100

$$$$
>  <compound>
CCc1nc(-c2cccc(C)c2)c(-c2ccnc(NC(=O)c3ccccc3)c2)s1

>  <target of assay>
MYO3B (human)

>  <unit abbreviation>
%

>  <kinase still bound, per cent of control>
48

$$$$
>  <compound>
N#Cc1cc(-c2ccnc(Nc3ccc(-n4cnc(-c5cccnc5)n4)cc3)n2)cc(N2CCOCC2)c1

>  <target of assay>
MYO3B (human)

>  <unit abbreviation>
%

>  <kinase still bound, per cent of control>
100

$$$$
>  <compound>
CCN(CCO)CCCOc1ccc2c(Nc3cc(CC(=O)Nc4cccc(F)c4)[nH]n3)ncnc2c1

>  <target of assay>
MYO3B (human)

>  <unit abbreviation>
%

>  <kinase still bound, per cent of control>
100

$$$$
>  <compound>
COc1cc2c(Nc3ccc(NC(=O)c4ccccc4)cc3)ncnc2cc1OCCCN1CCOCC1

>  <target of assay>
MYO3B (human)

>  <unit abbreviation>
%

>  <kinase still bound, per cent of control>
100

$$$$
>  <compound>
COc1cc(C)c(Sc2cnc(NC(=O)c3ccc(CNC(C)C(C)C)cc3)s2)cc1C(=O)N1CCN(C(C)=O)CC1 (stereo not drawn)

>  <target of assay>
MYO3B (human)

>  <unit abbreviation>
%

>  <kinase still bound, per cent of control>
100

$$$$
>  <compound>
Cc1cn(-c2cc(C(=O)Nc3ccc(C)c(NC(=O)c4ccno4)c3)cc(C(F)(F)F)c2)cn1

>  <target of assay>
MYO3B (human)

>  <unit abbreviation>
%

>  <kinase still bound, per cent of control>
100

$$$$
>  <compound>
COc1cc2ncnc(Nc3cccc(Cl)c3)c2cc1OC

>  <target of assay>
MYO3B (human)

>  <unit abbreviation>
%

>  <kinase still bound, per cent of control>
100

$$$$
>  <compound>
CCOc1cc(N2CCC(O)CC2)ccc1Nc1ncc2c(n1)N(C)c1ccccc1C(=O)N2C

>  <target of assay>
MYO3B (human)

>  <unit abbreviation>
%

>  <kinase still bound, per cent of control>
100

$$$$
>  <compound>
CC1=C(C(=O)Nc2cc3cn[nH]c3cc2F)C(c2ccc(C(F)(F)F)cc2)CC(=O)N1 (stereo not drawn)

>  <target of assay>
MYO3B (human)

>  <unit abbreviation>
%

>  <kinase still bound, per cent of control>
100

$$$$

----------
Target: UniProtKB Q9NY57
Sequence (Q9NY57 whole entry, looked up): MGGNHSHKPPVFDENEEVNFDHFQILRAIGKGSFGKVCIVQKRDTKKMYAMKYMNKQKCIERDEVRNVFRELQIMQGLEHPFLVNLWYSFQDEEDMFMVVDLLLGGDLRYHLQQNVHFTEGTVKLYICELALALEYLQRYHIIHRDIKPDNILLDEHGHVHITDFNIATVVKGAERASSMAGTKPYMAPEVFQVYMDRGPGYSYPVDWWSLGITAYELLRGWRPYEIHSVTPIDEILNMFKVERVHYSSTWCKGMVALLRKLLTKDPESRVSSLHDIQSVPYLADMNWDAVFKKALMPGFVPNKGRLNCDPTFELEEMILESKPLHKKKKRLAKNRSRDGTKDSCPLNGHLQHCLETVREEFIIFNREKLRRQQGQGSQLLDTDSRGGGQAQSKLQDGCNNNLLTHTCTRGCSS
Test: KINOMEscan competition binding
Details: compound 10.0 µM
Below, each entry is listed with its recorded kinase still bound, per cent of control.
readout kind: kinase still bound, per cent of control (%)

>  <compound>
CCOc1cc(N2CCC(O)CC2)ccc1Nc1ncc2c(n1)N(C)c1ccccc1C(=O)N2C

>  <reported value>
100

$$$$
>  <compound>
COc1cc2ncnc(Nc3cccc(Cl)c3)c2cc1OC

>  <reported value>
100

$$$$
>  <compound>
CNC(=O)Nc1ccc(-c2nc(N3CC4CCC(C3)O4)c3cnn(C4CCC5(CC4)OCCO5)c3n2)cc1

>  <reported value>
86

$$$$
>  <compound>
N#Cc1cc(-c2ccnc(Nc3ccc(-n4cnc(-c5cccnc5)n4)cc3)n2)cc(N2CCOCC2)c1

>  <reported value>
100

$$$$
>  <compound>
C=CC(=O)Nc1ccc(C(=O)c2sc(Nc3ccc(N4CCN(C)CC4)cc3OC)nc2N)cc1

>  <reported value>
71

$$$$
>  <compound>
COc1cc2c(Nc3ccc(NC(=O)c4ccccc4)cc3)ncnc2cc1OCCCN1CCOCC1

>  <reported value>
100

$$$$
>  <compound>
COc1cc(C)c(Sc2cnc(NC(=O)c3ccc(CNC(C)C(C)C)cc3)s2)cc1C(=O)N1CCN(C(C)=O)CC1 (centres undefined)

>  <reported value>
100

$$$$
>  <compound>
CCN(CCO)CCCOc1ccc2c(Nc3cc(CC(=O)Nc4cccc(F)c4)[nH]n3)ncnc2c1

>  <reported value>
100

$$$$
>  <compound>
CCN1CCN(Cc2ccc(NC(=O)c3ccc(C)c(/C=C/c4cnc5[nH]ccc5c4OC)c3)cc2C(F)(F)F)CC1

>  <reported value>
100

$$$$

----------
Target: PRKCE (human) (UniProt Q02156)
Sequence (Q02156 whole entry, looked up): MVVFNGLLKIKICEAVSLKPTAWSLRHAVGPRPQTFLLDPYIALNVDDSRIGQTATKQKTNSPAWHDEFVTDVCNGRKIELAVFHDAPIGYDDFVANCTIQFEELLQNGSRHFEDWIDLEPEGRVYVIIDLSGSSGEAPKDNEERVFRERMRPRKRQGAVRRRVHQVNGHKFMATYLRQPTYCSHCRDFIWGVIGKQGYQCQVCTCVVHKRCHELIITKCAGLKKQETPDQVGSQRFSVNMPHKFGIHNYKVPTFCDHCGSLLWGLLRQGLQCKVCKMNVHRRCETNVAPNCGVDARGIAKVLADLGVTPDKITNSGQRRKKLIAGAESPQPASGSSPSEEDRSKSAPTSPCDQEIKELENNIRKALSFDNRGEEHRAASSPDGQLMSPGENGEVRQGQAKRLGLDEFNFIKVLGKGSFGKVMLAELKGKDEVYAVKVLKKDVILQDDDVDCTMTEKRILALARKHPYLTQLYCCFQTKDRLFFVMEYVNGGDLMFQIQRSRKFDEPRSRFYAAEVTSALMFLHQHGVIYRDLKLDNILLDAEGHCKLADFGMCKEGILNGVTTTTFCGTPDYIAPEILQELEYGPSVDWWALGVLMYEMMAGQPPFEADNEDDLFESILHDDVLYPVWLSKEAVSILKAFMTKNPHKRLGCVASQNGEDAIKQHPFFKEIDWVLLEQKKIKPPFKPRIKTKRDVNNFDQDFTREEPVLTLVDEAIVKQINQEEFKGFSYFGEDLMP
Assay: KINOMEscan competition binding
Settings: compound 10.0 µM
Below, each entry is listed with its recorded kinase still bound, per cent of control.

>  <compound>
CCCS(=O)(=O)Nc1ccc(F)c(C(=O)c2c[nH]c3ncc(Cl)cc23)c1F

>  <kinase still bound, per cent of control>
100%

$$$$
>  <compound>
CCOc1cc(N2CCC(O)CC2)ccc1Nc1ncc2c(n1)N(C)c1ccccc1C(=O)N2C

>  <kinase still bound, per cent of control>
100%

$$$$
>  <compound>
COc1cc(C)c(Sc2cnc(NC(=O)c3ccc(CNC(C)C(C)C)cc3)s2)cc1C(=O)N1CCN(C(C)=O)CC1 (stereo not drawn)

>  <kinase still bound, per cent of control>
100%

$$$$
>  <compound>
COc1cc2c(Nc3ccc(NC(=O)c4ccccc4)cc3)ncnc2cc1OCCCN1CCOCC1

>  <kinase still bound, per cent of control>
100%

$$$$
>  <compound>
CCN(CCO)CCCOc1ccc2c(Nc3cc(CC(=O)Nc4cccc(F)c4)[nH]n3)ncnc2c1

>  <kinase still bound, per cent of control>
100%

$$$$
>  <compound>
COc1cc2ncnc(Nc3cccc(Cl)c3)c2cc1OC

>  <kinase still bound, per cent of control>
75%

$$$$
>  <compound>
CC1=C(C(=O)Nc2cc3cn[nH]c3cc2F)C(c2ccc(C(F)(F)F)cc2)CC(=O)N1 (stereo not drawn)

>  <kinase still bound, per cent of control>
100%

$$$$
>  <compound>
N#Cc1cc(-c2ccnc(Nc3ccc(-n4cnc(-c5cccnc5)n4)cc3)n2)cc(N2CCOCC2)c1

>  <kinase still bound, per cent of control>
100%

$$$$
>  <compound>
O=c1[nH]c2ccccc2n1C1CCN(Cc2ccc(-c3nc4cc5[nH]cnc5cc4nc3-c3ccccc3)cc2)CC1

>  <kinase still bound, per cent of control>
100%

$$$$
>  <compound>
COc1cc(N2CCC(C(N)=O)CC2)ccc1Nc1nc(N)c(Cl)c(Nc2ccccc2S(=O)(=O)C(C)C)n1

>  <kinase still bound, per cent of control>
100%

$$$$
>  <compound>
Cc1cn(-c2cc(C(=O)Nc3ccc(C)c(NC(=O)c4ccno4)c3)cc(C(F)(F)F)c2)cn1

>  <kinase still bound, per cent of control>
100%

$$$$
>  <compound>
COc1ccc(N(C(=O)Oc2cc(C(=O)Nc3cccc(C(F)(F)F)c3)ccc2C)c2ccnc(Nc3ccc(N4CCN(C)CC4)cc3)n2)c(OC)c1

>  <kinase still bound, per cent of control>
100%

$$$$
>  <compound>
N#C/C(=C1/Nc2ccccc2S1)c1ccnc(NCCc2cccnc2)n1

>  <kinase still bound, per cent of control>
92%

$$$$
